- assay: Binding affinity to human brain alpha3beta4* nAChR
- Format: tissue-based
measurement-label: pKi
Here pKi is given on a logarithmic scale as minus log10 of the concentration in mol/L.

Challenge: Give the value of pKi reported for the following: c1cncc(OC[C@@H]2CCN2)c1
Response given: 10.70

* * *

- tgt: Neuronal acetylcholine receptor; alpha4/beta2 (Rattus norvegicus, UniProt P09483+P12390)
- Sequence (P09483 whole entry): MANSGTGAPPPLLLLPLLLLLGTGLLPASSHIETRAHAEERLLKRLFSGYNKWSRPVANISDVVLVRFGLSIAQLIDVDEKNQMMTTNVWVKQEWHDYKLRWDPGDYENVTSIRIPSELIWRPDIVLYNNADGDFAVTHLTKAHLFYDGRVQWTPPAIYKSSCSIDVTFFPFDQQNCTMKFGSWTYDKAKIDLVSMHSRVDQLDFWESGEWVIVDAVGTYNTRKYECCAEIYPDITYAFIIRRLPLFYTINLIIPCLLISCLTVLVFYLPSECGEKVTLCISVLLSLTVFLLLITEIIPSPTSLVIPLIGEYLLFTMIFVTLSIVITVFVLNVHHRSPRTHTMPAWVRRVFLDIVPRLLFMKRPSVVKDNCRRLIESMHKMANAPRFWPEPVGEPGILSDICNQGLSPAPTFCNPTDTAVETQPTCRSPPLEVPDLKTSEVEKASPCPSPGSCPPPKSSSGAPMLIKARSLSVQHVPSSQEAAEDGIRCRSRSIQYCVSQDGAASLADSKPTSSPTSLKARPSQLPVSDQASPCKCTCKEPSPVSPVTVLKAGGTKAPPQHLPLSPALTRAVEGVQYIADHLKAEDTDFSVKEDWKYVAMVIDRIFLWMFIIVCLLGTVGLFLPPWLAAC
- Sequence (P12390 whole entry): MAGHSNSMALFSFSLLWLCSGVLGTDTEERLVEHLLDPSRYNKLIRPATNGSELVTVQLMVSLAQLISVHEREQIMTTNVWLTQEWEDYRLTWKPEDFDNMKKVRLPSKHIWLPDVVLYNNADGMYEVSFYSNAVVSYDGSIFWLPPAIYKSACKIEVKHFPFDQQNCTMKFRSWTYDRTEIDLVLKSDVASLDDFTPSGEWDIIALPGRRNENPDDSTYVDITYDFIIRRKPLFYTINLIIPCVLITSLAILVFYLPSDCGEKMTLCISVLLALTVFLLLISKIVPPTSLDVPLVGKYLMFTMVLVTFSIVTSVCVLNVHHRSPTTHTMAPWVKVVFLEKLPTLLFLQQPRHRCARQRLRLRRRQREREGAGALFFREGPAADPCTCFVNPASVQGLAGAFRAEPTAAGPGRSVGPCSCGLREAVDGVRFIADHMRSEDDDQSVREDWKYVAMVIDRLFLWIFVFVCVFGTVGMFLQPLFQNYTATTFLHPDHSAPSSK
- assay: Agonist activity at alpha4beta2 nAChR in rat thalamic synaptosomes by [86]Rb+ efflux assay
measurement-label: EC50 (nM)
Form entry: value (nM) — number only.

Challenge: Print Neuronal acetylcholine receptor; alpha4/beta2 (Rattus norvegicus, UniProt P09483+P12390) EC50 for CN[C@@H](C)C/C=C/c1cncc(OC(C)C)c1 [ISPRONICLINE] .
Response given: 220
